# tested-system: UniProtKB Q16236
# Sequence (Q16236 whole entry): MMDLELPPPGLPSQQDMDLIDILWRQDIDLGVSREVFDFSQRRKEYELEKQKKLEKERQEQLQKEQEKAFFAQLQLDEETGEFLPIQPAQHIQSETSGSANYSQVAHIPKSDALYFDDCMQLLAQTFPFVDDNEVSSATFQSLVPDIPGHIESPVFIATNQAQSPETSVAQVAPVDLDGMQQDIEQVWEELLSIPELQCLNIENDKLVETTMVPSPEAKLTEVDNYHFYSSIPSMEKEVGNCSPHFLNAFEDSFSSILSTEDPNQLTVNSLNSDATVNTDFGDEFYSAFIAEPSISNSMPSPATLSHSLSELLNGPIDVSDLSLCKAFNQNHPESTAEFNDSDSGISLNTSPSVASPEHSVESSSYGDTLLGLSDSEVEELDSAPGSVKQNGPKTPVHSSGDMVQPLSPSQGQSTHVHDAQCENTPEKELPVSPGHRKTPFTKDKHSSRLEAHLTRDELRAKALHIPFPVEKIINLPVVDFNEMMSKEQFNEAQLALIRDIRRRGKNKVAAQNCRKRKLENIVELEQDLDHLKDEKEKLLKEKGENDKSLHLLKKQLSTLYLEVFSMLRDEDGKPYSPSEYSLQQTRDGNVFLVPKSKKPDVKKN
# test-name: Induction of Nrf2/ARE activation in human Hela cells at 5 uM measured after 12 to 24 hrs by luciferase reporter gene assay relative to control
# Assay type: cell-based
# condition: filed as activator, time 12-24 hrs
property-name: fold change (FC)

INSERT INTO measurements (sample_smiles, property_name, reported) VALUES
  ('COc1ccc(/C=C/C(=O)N2CCN(Cc3noc(Cc4c[nH]c5ccccc45)n3)CC2)cc1', 'fold change (FC)', 1.65),
  ('O=C(/C=C/c1ccc2c(c1)OCO2)N1CCN(Cc2noc(Cc3c[nH]c4ccccc34)n2)CC1', 'fold change (FC)', 2.07),
  ('COc1cc(/C=C/C(=O)N2CCN(Cc3noc(Cc4c[nH]c5ccccc45)n3)CC2)cc(OC)c1OC', 'fold change (FC)', 2.6),
  ('COc1cc(/C=C/C(=O)N2CCN(Cc3noc(Cc4c[nH]c5ccccc45)n3)CC2)ccc1O', 'fold change (FC)', 2.34),
  ('O=C(c1ccccc1)N1CCN(Cc2noc(Cc3c[nH]c4ccccc34)n2)CC1', 'fold change (FC)', 1.31),
  ('O=C(c1ccc(Br)cc1)N1CCN(Cc2noc(Cc3c[nH]c4ccccc34)n2)CC1', 'fold change (FC)', 1.21),
  ('COc1ccc(/C=C/C(=O)N2CCN(Cc3noc(Cc4c[nH]c5ccccc45)n3)CC2)cc1O', 'fold change (FC)', 3.69),
  ('COc1cccc(CN2CCN(Cc3noc(Cc4c[nH]c5ccccc45)n3)CC2)c1', 'fold change (FC)', 1.12),
  ('O=C(/C=C/c1ccccc1)N1CCN(Cc2noc(Cc3c[nH]c4ccccc34)n2)CC1', 'fold change (FC)', 1.32),
  ('COc1ccc(OC)c(/C=C/C(=O)N2CCN(Cc3noc(Cc4c[nH]c5ccccc45)n3)CC2)c1', 'fold change (FC)', 1.77),
  ('Fc1cccc(CN2CCN(Cc3noc(Cc4c[nH]c5ccccc45)n3)CC2)c1', 'fold change (FC)', 1.42),
  ('CS(=O)(=O)c1ccc(CN2CCN(Cc3noc(Cc4c[nH]c5ccccc45)n3)CC2)cc1', 'fold change (FC)', 2.04);
